Target: recombinant sEH (Homo sapiens)
Sequence (P34913 whole entry): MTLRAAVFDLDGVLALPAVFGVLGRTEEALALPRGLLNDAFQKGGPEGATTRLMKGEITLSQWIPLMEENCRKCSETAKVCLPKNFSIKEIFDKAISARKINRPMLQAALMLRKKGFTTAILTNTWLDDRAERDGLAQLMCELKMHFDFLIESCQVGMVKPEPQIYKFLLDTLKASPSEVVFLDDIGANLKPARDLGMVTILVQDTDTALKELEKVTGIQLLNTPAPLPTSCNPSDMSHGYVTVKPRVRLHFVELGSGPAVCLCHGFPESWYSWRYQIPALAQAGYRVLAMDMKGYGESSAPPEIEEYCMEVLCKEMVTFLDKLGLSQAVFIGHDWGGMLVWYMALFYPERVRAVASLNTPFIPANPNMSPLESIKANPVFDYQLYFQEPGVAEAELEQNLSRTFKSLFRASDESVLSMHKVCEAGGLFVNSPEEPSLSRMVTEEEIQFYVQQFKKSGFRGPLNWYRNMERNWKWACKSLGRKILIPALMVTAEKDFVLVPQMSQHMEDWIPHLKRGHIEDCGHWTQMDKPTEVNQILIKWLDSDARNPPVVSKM
Experiment: biochemical screening assay for inhibition of soluble epoxide hydrolase (fluorometric, Phome substrate)
Where a name gives a salt, the structure may show the parent alone.
QUANTITY: pIC50
Just so you know, pIC50 here is -log10 of the concentration in molar units; reply with that number alone.

{"columns": ["MOLECULE", "pIC50"],
 "data": [
  ["Cc1nn(C(C)C)cc1NC(=O)N[C@H]1CO[C@H]2[C@@H]1OC[C@@H]2Oc1cccnc1C", 7.37]
]}

Prompt: Fill blank: measured pIC50 of the molecule "Cc1ncccc1O[C@H]1CO[C@H]2[C@@H]1OC[C@@H]2NC(=O)NC(C)(C)c1cccnc1" is ____.
Completion: 5.45

Prompt: Further, for Cc1cc(C)cc(NC(=O)NC2COC3C(C=Cc4ccccc4)COC23)c1 (stereo not drawn) ?
Completion: 8.15

Prompt: Please answer likewise for Cc1ncccc1O[C@H]1CO[C@H]2[C@@H]1OC[C@@H]2NC(=O)NC1CC(C)CCC1C(C)C (stereo partly drawn)
Completion: 7.60

Prompt: Same lookup for O=C(NC1CCCCC1)N[C@H]1CO[C@@H]2[C@@H](CCc3ccccn3)CO[C@@H]21 [Example 350, trifluoroacetate] , please.
Completion: 7.66

Prompt: Another molecule: "Cc1ncccc1O[C@H]1CO[C@H]2[C@@H]1OC[C@@H]2NC(=O)NC(C)(C)COC(C)(C)C"
Completion: 6.32

Prompt: And then "O=C(Nc1ccc2c(c1)CCC2)N[C@H]1CO[C@H]2[C@@H]1OC[C@@H]2C#Cc1ccsc1" , what is it?
Completion: 7.14

Prompt: Thanks! And "CC(=O)c1cccc(O[C@H]2CO[C@H]3[C@@H]2OC[C@@H]3NC(=O)NC2CCCCC2)c1" ?
Completion: 8.52

Prompt: Same question, "COc1ccc([C@H](C)NC(=O)N[C@H]2CO[C@H]3[C@@H]2OC[C@@H]3Oc2ccc(F)cc2)cc1" this time
Completion: 7.18

Prompt: Quick one: "N#Cc1ncccc1O[C@H]1CO[C@H]2[C@@H]1OC[C@@H]2NC(=O)NC1CCCCC1"
Completion: 7.96

Prompt: Same question for "CCOC(=O)CC[C@H]1CO[C@H]2[C@@H]1OC[C@@H]2NC(=O)NC1CCCCC1" please.
Completion: 7.59

Prompt: What about this molecule? Cc1ncccc1O[C@H]1CO[C@H]2[C@@H]1OC[C@@H]2NC(=O)NCCC1CCCCO1 (stereo partly drawn)
Completion: 7.07

====

Biological target: recombinant sEH (Homo sapiens)
Experiment: biochemical screening assay for inhibition of soluble epoxide hydrolase (fluorometric, Phome substrate)
Source text: The ability of the compounds of the formula I to inhibit soluble epoxide hydrolase can be determined as follows: […] Fluorescence can be measured with any suitable detector for instance a TECAN Safire or Tecan Ultra at […]. % inhibition of recombinant sEH activity is used for calculation of corresponding IC50 values as illustrated and described in the examples. […]
QUANTITY: IC50 (nM)
State just the number; it will be interpreted in nM.

{"columns": ["COMPOUND", "SYSTEM_NAME", "SCALE_UNIT", "MEASURED_VALUE"],
 "data": [
  ["Cc1ncccc1O[C@H]1CO[C@H]2[C@@H]1OC[C@@H]2NC(=O)NC[C@H]1C[C@H]2C[C@@H]([C@@H]1C)C2(C)C", "recombinant sEH (Homo sapiens)", "nM", 5],
  ["CC(C)(C)NC(=O)N[C@H]1CO[C@H]2[C@@H]1OC[C@@H]2Oc1ccc(F)cc1", "recombinant sEH (Homo sapiens)", "nM", 2160]
]}

Prompt: I would be grateful if you could share the reported IC50 for O=C(NC1CCCCC1)N[C@H]1CO[C@H]2[C@@H]1OC[C@@H]2SC1CCS(=O)(=O)C1 (stereo partly shown) .
Completion: 8

Prompt: How about "Cc1ncccc1O[C@H]1CO[C@H]2[C@@H]1OC[C@@H]2NC(=O)NCc1ccc(OC(F)F)cc1" ?
Completion: 23

Prompt: Also need "CCC(O)(CC)c1cncc(O[C@H]2CO[C@H]3[C@@H]2OC[C@@H]3NC(=O)NC2CCCCC2)c1" , thanks.
Completion: 2

Prompt: Also "COC(=O)c1cccc(NC(=O)N[C@H]2CO[C@H]3[C@@H]2OC[C@@H]3/C=C\c2ccsc2)c1" ?
Completion: 102

Prompt: Same for "O=C(NCc1ccc(F)cc1)N[C@H]1CO[C@H]2[C@@H]1OC[C@@H]2/C=C\c1ccsc1"
Completion: 392
